Measured remaining at 40 min, 1 µM by item
- experimental details: Metabolic stability in rat liver microsomes assessed as compound remaining at 1 uM up to 40 mins by LC-MS/MS method relative to control
value type: remaining at 40 min, 1 µM (%)

* CC(C)c1onc(-c2c(Cl)cccc2Cl)c1COc1ccc(/C=C/c2cccc(C(=O)O)c2)c(Cl)c1 | 48
* CC[C@H]1[C@@H](O)[C@@H]2[C@H](CC[C@]3(C)[C@@H]([C@H](C)CCC(=O)O)CC[C@@H]23)[C@@]2(C)CC[C@@H](O)C[C@@H]12 | 27

----------
- experimental details: Aqueous solubility of compound in phosphate buffer at pH 7.4//MeOH after 24 hrs by LC-MS/MS method
- Type: physicochemical
value type: solubility at 24 h (µM)

- CC(C)c1onc(-c2c(Cl)cccc2Cl)c1COc1ccc(/C=C/c2cccc(C(=O)O)c2)c(Cl)c1: 152

----------
- experimental details: Intrinsic clearance in rat liver microsomes at 1 uM up to 40 mins by LC-MS/MS method
- condition: read-out: CLH
value type: microsomal CLint at 1 µM (µL/min/mg)

* CC[C@H]1[C@@H](O)[C@@H]2[C@H](CC[C@]3(C)[C@@H]([C@H](C)CCC(=O)O)CC[C@@H]23)[C@@]2(C)CC[C@@H](O)C[C@@H]12 | 109
* CC(C)c1onc(-c2c(Cl)cccc2Cl)c1COc1ccc(/C=C/c2cccc(C(=O)O)c2)c(Cl)c1 | 56
